organism: Homo sapiens; assay: Compound was tested in vitro for inhibition of human mixed lymphocyte proliferation (HuMLR); assay type: functional
pIC50: −log10 of the molar value.
VALUE KIND: pIC50

MOLECULE	VALUE KIND	READING
CC[C@@H]1/C=C(\C)C[C@H](C)C[C@H](OC)[C@H]2O[C@@](O)(C(=O)C(=O)N3CCCC[C@H]3C(=O)O[C@H](/C(C)=C/[C@@H]3CC[C@@H](O)[C@H](OC)C3)[C@H](C)[C@@H](O)CC1=O)[C@H](C)C[C@@H]2OC	pIC50	9.60
CC[C@@H]1/C=C(\C)C[C@H](C)C[C@H](OC)[C@H]2O[C@@](O)(C(=O)C(=O)N3CCCC[C@H]3C(=O)O[C@H](/C(C)=C/[C@@H]3C[C@@H](O)[C@@H](O)[C@H](OC)C3)[C@H](C)[C@@H](O)CC1=O)[C@H](C)C[C@@H]2OC	pIC50	9.77
CC[C@@H]1/C=C(\C)C[C@H](C)C[C@H](OC)[C@H]2O[C@@](O)(C(=O)C(=O)N3CCCC[C@H]3C(=O)O[C@H](/C(C)=C/[C@@H]3CC[C@@H](OC)[C@H](O)C3O)[C@H](C)[C@@H](O)CC1=O)[C@H](C)C[C@@H]2OC (some centres undefined)	pIC50	9.14
C=CC[C@@H]1/C=C(\C)C[C@H](C)C[C@H](OC)[C@H]2O[C@@](O)(C(=O)C(=O)N3CCCC[C@H]3C(=O)O[C@H](/C(C)=C/[C@@H]3CC[C@@H](O)[C@H](OC)C3)[C@H](C)[C@@H](O)CC1=O)[C@H](C)C[C@@H]2OC [TACROLIMUS ANHYDROUS]	pIC50	9.43

Cited source: ChEMBL document CHEMBL1130792
